quantity.measured: melting point

These recorded examples may help you get a feel for the data.
CN(C)C(=O)CCC(=NNC(N)=S)c1ccccc1 ... 173 to 175 °C
CC(C)NC(=O)CCC(=NNC(N)=S)c1ccccc1 ... 66 to 71 °C
CC(C)CCCC(C)NC(=O)CCC(=NNC(N)=S)c1ccccc1 (stereo not shown) ... 58 to 65 °C
NC(=S)NN=C(CCC(=O)NC1CCCCC1)c1ccccc1 ... 89 to 92 °C
CCCCNC(=O)CCC(=NNC(N)=S)c1ccccc1 ... 64 to 68 °C

Req: State its melting point: NC(=O)CCC(=NNC(N)=S)c1ccccc1
Resp: 186 to 188 °C

Req: State its melting point: NC(=S)NN=C(CCC(=O)N1CCCCC1)c1ccccc1
Resp: 181 to 183 °C
